test system: HaCat; test: Cytotoxic Profiling of Annotated Libraries Using Quantitative High-Throughput Screening (AID 1296008); conditions: Five cell lines viability, CellTiter-Glo ATP luminescence, 48-72 h; stronger effect = lower value; also: % is scaled to controls: 0 for no effect and ±100 for the full control effect
Inconclusive results are not listed.
measurement type: max response (%)

>>> print(df.to_string())
                                    molecule  measurement_type  readout_unit  reported_value
 0  O=C1OC2(c3ccc(O)cc3Oc3cc(O)ccc32)c2ccccc21      max response             %           -26.2
 1               Oc1ccc(Cl)cc1Sc1cc(Cl)ccc1O      max response             %               2
 2  Cc1cc2c(cc1CC(=O)c1sccc1S(=O)(=O)Nc1onc(C)c1Cl)OCO2      max response             %           -2.94
 3         CN(C)CCCOc1nn(Cc2ccccc2)c2ccccc12      max response             %            3.55
 4            CN1CCN(C(c2ccccc2)c2ccccc2)CC1      max response             %           -15.7
 5      COc1ccc(/C=C/C(=O)c2ccc(OC)cc2OC)cc1      max response             %           -62.6
 6  CC(C)(C)NC(=O)[C@@H]1CN(Cc2cccnc2)CCN1C[C@@H](O)C[C@@H](Cc1ccccc1)C(=O)N[C@H]1c2ccccc2C[C@H]1O      max response             %           -2.17
 7      CCCCOc1cc(C(=O)NCCN(CC)CC)c2ccccc2n1      max response             %            2.41
 8  COC(=O)C1=C(C)NC(C)=C(C(=O)O[C@@H]2CCCN(Cc3ccccc3)C2)[C@@H]1c1cccc([N+](=O)[O-])c1      max response             %           -9.72
 9  COc1cc2c(cc1OC)[C@@H]1CC(=O)[C@@H](CC(C)C)CN1CC2      max response             %          -0.956
10         c1ccc(OCc2ccc(CCCN3CCOCC3)cc2)cc1      max response             %            1.82
11      C[C@@H](CN(C)C)CN1c2ccccc2Sc2ccccc21      max response             %          -0.198
12  O=C1[C@H]2CCCC[C@H]2C(=O)N1CCCCN1CCN(c2nsc3ccccc23)CC1      max response             %            -5.6
13              O=C(N/N=C/c1ccccc1O)c1ccncc1      max response             %           -6.14
14  C[C@]12C=CC(=O)C=C1[C@@H](F)C[C@@H]1[C@@H]2[C@@H](O)C[C@@]2(C)[C@H]1CC[C@]2(O)C(=O)CO      max response             %            -4.4
15  O=S1(=O)c2cccc3cccc(c23)N1CCCN1CCN(c2ccc(F)cc2)CC1      max response             %          -0.344
16             CCOc1ccc2nc3cc(N)ccc3c(N)c2c1      max response             %           -2.56
17                       CCOC(=O)c1cccc(N)c1      max response             %           -20.5
18  CCOc1ccc(Cc2nccc3cc(OCC)c(OCC)cc23)cc1OCC      max response             %           -22.8
19  CCN(CC)C(=O)/C(C#N)=C/c1cc(O)c(O)c([N+](=O)[O-])c1      max response             %           -5.03
20  CCCCS(=O)(=O)N[C@@H](Cc1ccc(OCCCCC2CCNCC2)cc1)C(=O)O      max response             %           -0.76
21          CC(C)N=C(N)/N=C(\N)Nc1ccc(Cl)cc1      max response             %           0.505
22  CC(=O)Oc1ccc2c(c1)CC[C@@H]1[C@@H]2CC[C@]2(C)[C@@H](O)CC[C@@H]12      max response             %           -1.57
23                        COc1cc(OC)cc(OC)c1      max response             %            4.71
24  CC(=O)Oc1ccc(C(c2ccc(OC(C)=O)cc2)c2ccccn2)cc1      max response             %          -0.175
25  CC[N+](CC)(CCNC(=O)C(=O)NCC[N+](CC)(CC)Cc1ccccc1Cl)Cc1ccccc1Cl      max response             %           -1.93
26  O=C(OCC(O)CO)c1ccccc1Nc1ccnc2cc(Cl)ccc12 (stereo unspecified)      max response             %           -6.51
27  C[C@@H]1C[C@H]2[C@@H]3C[C@H](F)C4=CC(=O)C(Cl)=C[C@]4(C)[C@@]3(F)[C@@H](O)C[C@]2(C)[C@@]1(O)C(=O)CO      max response             %            2.77
28  CCOC(=O)COc1ccc2c(C)c(CCN(CC)CC)c(=O)oc2c1Cl      max response             %           -12.1
29               CCCCOc1ccc(OCCCN2CCOCC2)cc1      max response             %           -3.82
30            CNCC[C@@H](Oc1ccccc1C)c1ccccc1      max response             %            1.42

Cited source: PubChem BioAssay (NCATS)
